- TGT: 5HT3 receptor (Rattus norvegicus, UniProt P35563)
- Construct: in the anesthetized rat; from tissue; host or cells: whole anesthetized rat (in vivo); endogenous receptor
- Sequence (P35563 24-483): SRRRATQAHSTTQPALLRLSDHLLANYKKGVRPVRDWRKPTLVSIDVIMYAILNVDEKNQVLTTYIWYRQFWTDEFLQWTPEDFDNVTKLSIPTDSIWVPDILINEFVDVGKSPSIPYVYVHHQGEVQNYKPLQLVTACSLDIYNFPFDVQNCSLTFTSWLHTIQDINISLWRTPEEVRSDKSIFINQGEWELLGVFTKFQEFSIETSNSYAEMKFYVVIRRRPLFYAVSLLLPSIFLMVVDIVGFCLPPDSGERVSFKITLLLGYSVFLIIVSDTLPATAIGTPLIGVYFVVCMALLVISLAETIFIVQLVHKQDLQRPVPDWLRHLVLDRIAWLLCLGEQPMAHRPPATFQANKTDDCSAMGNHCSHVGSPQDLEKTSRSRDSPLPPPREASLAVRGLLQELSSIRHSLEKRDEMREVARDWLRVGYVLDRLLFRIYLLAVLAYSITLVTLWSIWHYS
- PROTOCOL DESCRIPTION: Inhibition of the von Bezold-Jarisch chemoreflex evoked by 5-HT in the anesthetized rat (in vivo 5HT3 antagonist activity)
- ASSAY CONDITIONS: iv, 5-HT 20 ug/kg i.v., read-out: ED50 (limits)
Recorded log10 of ED50 by entry
QUANTITY MEASURED: log10 of ED50 (log10 of the value in µg/kg)

{"COMPOUND": "Cc1[nH]cnc1CN1CCN(c2cccc(Br)c2)C1=O [FCE 28159]", "log10 of ED50": 0.81}
{"COMPOUND": "Cc1[nH]cnc1CN1CCN(c2ccccc2)C1=O [FCE 28277]", "log10 of ED50": 0.59}
{"COMPOUND": "Cc1[nH]cnc1CN1CCN(c2cccc(Cl)c2)C1=O [FCE 27733]", "log10 of ED50": 0.72}
{"COMPOUND": "Cc1[nH]cnc1CN1CCN(c2cccc(C#N)c2)C1=O [FCE 28276]", "log10 of ED50": 1.51}
{"COMPOUND": "CSc1cccc(N2CCN(Cc3nc[nH]c3C)C2=O)c1 [FCE 28278]", "log10 of ED50": 1.46}
{"COMPOUND": "Cc1[nH]cnc1CN1CCN(c2cc(Cl)cc(Cl)c2)C1=O [FCE 28232]", "log10 of ED50": 0.34}
{"COMPOUND": "Cc1cccc(N2CCN(Cc3nc[nH]c3C)C2=O)c1 [FCE 28355]", "log10 of ED50": 0.49}

Where these numbers come from: patent US5424328A
